The entries below come with measured composite z-score values attached.
Experimental Target: Follistatin (Homo sapiens) (UniProt P19883)
Sequence (P19883 whole entry, looked up): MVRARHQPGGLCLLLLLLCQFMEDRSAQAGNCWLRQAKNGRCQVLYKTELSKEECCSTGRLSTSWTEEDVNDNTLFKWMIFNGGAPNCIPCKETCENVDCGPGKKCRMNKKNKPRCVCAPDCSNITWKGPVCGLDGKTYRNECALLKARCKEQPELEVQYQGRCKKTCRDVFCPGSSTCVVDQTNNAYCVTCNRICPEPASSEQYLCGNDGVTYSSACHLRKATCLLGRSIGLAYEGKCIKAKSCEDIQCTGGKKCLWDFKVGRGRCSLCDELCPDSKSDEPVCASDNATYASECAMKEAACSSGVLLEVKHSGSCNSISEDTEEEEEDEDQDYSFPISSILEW
Run Description: FST protein binding to printed compounds – biochemical, small-molecule microarray, 635/667 nm fluorescence, primary screen (AID 1132)
Condition Set: 635 nm fluorescence, higher = more signal
I'd appreciate a reply containing only the number, no unit.

For the molecule shown here, C=C[C@@H](O)[C@H]1CC(c2ccccc2)=NO1 , give the reported composite z-score.
-0.16

Entry O=C1OCC=C[C@H]2OC34C=CCN(CCN5CCOCC5)C(=O)[C@H]3N(CCCCCO)C(=O)[C@@H]4[C@@H]12 (some centres undefined) : reported composite z-score = ?
-0.307

# lookup: composite z-score of COc1ccc(CCNC(=O)[C@@H]2c3ccccc3C(=O)N(Cc3ccccc3C(F)(F)F)[C@H]2c2ccc(CO)cc2)cc1
0.566

Would you kindly share the measured composite z-score for O=C1c2ccccc2[C@](Cc2ccccc2I)(C(=O)NC2CC2)[C@H](c2ccc(CO)cc2)N1Cc1ccccc1Cl ?
1.23

---

Below, each entry is listed with its recorded composite z-score.
System: glycogen synthase kinase-3 (GSK3A per assay name; protocol says GSK3B)
Run Description: compounds binding glycogen synthase kinase-3 – biochemical, small-molecule microarray, 635 nm fluorescence, GSK3A, primary screen (AID 1103); also: the record names both GSK3A and GSK3B
Condition Set: fluorescence 635 nm, higher = more signal
// return just the number, without any unit appended

Sample answers from the record:
- Molecule: "COCCCNC(=O)[C@@]1(Cc2ccccc2N=[N+]=[N-])N=C(c2ccc(OCCCO)cc2)O[C@H]1c1ccccc1CN=[N+]=[N-]"
  Experimental Target: "glycogen synthase kinase-3 (GSK3A per assay name; protocol says GSK3B)"
  composite z-score: 1.21
- Molecule: "CC(C)C[C@H]1NC(=O)[C@H](C)NC(=O)[C@@]23C(=O)N[C@@H](Cc4ccccc4)C2[C@H](C)[C@@]2(C)O[C@H]2C3/C=C/C/C=C\\CNC1=O (some centres not stated)"
  Experimental Target: "glycogen synthase kinase-3 (GSK3A per assay name; protocol says GSK3B)"
  composite z-score: -0.294
- Molecule: "CO[C@H]1O[C@H](CO)[C@@H](OC(=O)c2ccc(Br)cc2)[C@@H]2OC(=O)[C@H](Cc3cccc(Br)c3)C/C=C/C[C@@H](Cc3cccc(Br)c3)C(=O)O[C@@H]12"
  Experimental Target: "glycogen synthase kinase-3 (GSK3A per assay name; protocol says GSK3B)"
  composite z-score: 0.559
- Molecule: "O=C(Nc1cc(Br)ccc1C(=O)NCc1cccc(O)c1)c1ccccc1"
  Experimental Target: "glycogen synthase kinase-3 (GSK3A per assay name; protocol says GSK3B)"
  composite z-score: 0.476
- Molecule: "COC(=O)[C@@]1(Cc2ccc(F)cc2)[C@@H]2[C@@H](CC(=O)[C@H]2CC(=O)C(=O)N2CCCC2)CN1C(=O)c1ccccc1"
  Experimental Target: "glycogen synthase kinase-3 (GSK3A per assay name; protocol says GSK3B)"
  composite z-score: 1.3
- Molecule: "COCCCNC(=O)[C@]1(CCS(=O)(=O)c2ccccc2)N=C(c2ccc(OCCCO)cc2)O[C@@H]1c1ccccc1"
  Experimental Target: "glycogen synthase kinase-3 (GSK3A per assay name; protocol says GSK3B)"
  composite z-score: 1.01

Let's switch to this molecule now.
What value of composite z-score has been reported for the following molecule? C=CCOc1ccc([C@@H]2CC=C(C(=O)OCC)[C@H](c3cccc(Br)c3)N2S(=O)(=O)c2ccc(C)cc2)cc1
-1.11
